// data source = paper PMC7447632

Target: rat TRPM8 channel (Rattus norvegicus)
Sequence (Q8R455 whole entry): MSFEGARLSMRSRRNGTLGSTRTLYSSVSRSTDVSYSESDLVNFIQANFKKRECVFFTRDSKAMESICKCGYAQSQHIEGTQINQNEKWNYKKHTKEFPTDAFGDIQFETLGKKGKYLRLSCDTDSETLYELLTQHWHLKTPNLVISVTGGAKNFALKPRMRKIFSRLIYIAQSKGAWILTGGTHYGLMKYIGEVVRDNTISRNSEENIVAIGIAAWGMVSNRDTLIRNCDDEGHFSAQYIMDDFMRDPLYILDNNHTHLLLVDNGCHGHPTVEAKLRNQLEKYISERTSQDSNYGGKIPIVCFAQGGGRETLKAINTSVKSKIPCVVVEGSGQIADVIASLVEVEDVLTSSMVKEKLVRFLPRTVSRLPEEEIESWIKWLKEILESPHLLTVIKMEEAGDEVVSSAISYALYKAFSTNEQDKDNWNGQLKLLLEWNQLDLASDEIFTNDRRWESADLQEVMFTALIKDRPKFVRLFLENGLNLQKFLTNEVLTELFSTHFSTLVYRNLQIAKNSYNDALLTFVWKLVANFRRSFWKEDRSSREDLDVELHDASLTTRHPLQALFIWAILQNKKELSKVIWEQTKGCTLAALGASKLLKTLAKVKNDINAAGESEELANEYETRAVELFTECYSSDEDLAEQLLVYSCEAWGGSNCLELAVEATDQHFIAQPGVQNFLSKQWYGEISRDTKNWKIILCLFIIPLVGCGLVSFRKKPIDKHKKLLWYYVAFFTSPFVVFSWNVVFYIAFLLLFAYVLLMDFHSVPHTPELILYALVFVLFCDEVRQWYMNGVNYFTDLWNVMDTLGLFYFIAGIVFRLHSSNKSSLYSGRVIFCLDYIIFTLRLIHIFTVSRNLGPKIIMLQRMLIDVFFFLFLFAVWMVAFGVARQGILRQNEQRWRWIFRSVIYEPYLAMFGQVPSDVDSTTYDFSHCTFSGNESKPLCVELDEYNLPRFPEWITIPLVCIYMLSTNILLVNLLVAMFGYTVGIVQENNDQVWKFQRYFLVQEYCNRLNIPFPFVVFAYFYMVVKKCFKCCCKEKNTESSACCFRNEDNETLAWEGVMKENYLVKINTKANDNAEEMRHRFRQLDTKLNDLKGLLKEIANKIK
Assay: Ca2+ microfluorometry, menthol-induced Ca2+ influx in HEK293 cells expressing rat TRPM8
Details: Ca2+ microfluorometry, 100 µM menthol; HEK-rTRPM8
Description: The ability to inhibit menthol-induced Ca^2+ intracellular influx into the cytosol on HEK293 cells heterologously expressing the rat TRPM8 channel was measured and compared to that of AMTB, a well-known TRPM8 antagonist. Representative recordings of fluorescence obtained in microfluorometry experiments for selected compounds are in Supplementary Fig. S3. Human embryonic kidney cell line (HEK) stably transfected with rTRPM8 or h-TRPV1 were used as previously described. […]
What IC50 was measured for each of the following?
Please state the figure in nM; there is no need to write the unit.

Problem: For the compound CC(C(=O)OCc1ccccc1)N1CC(Cc2ccccc2)N(C(=O)OCc2ccccc2)CC1=O (stereo not shown) [Compound 38ab] , what IC50 is on record?
Result: 2500

Problem: What would you report for O=C(N[C@H](Cc1ccccc1)CN1C(=O)CC1(Cc1ccccc1)C(=O)OCc1ccccc1)OCc1ccccc1 (stereo partly shown) [Compound 14ab] ?
Result: 1200

Problem: What would you report for O=C(OCc1ccccc1)C(Cc1ccccc1)N1C[C@@H](Cc2ccccc2)N(C(=O)OCc2ccccc2)CC1=O (stereo partly shown) [Compound 15ab] ?
Result: 1800

Problem: What would you report for C[C@@H]1C(=O)N(C(Cc2ccccc2)C(=O)OCc2ccccc2)C[C@@H](Cc2ccccc2)N1C(=O)OCc1ccccc1 (stereo partly shown) [Compound 30ab] ?
Result: 160
